Entries and their intrinsic clearance, rat liver microsomes
measured-metric: intrinsic clearance, rat liver microsomes (mL/min/kg)

INSERT INTO assay_data (compound, relation_qualifier, observed_result) VALUES
  ('O=C(Nc1nc2cc(C(F)(F)F)cc(NC3CC3)n2n1)c1cccnc1', '=', 39.6),
  ('CCOC(=O)N1CCN(C(=O)Nc2cccc3c2CCCC3)CC1', '=', 394),
  ('Cc1ccc(NC(=O)c2cc(F)cc(F)c2)nc1', '=', 285),
  ('CO[C@H]1/C=C\C=C(/C)C(=O)NC2=CC(=O)C(NCCN(C)C)=C(C[C@@H](C)C[C@@H](OC)[C@@H](O)[C@@H](C)/C=C(\C)[C@H]1OC(N)=O)C2=O', '=', 73.6),
  ('O=C(c1cccs1)N1CCCC(C(=O)N2Cc3ccccc3C(c3ccccc3)C2)C1 (configuration not stated)', '=', 4910),
  ('O=C1CCCc2c1[nH]c1cc(-n3ccnc3-c3ccncc3)ccc21', '=', 187),
  ('Oc1ccc(CN2CCN(c3cccc(Cl)c3)CC2)cc1', '=', 90),
  ('C=CCNC(=O)C1(Cc2ccc(-c3ccccc3)cc2)CCN(C(=O)c2cccnc2)CC1', '=', 557),
  ('COc1cccc(Oc2ccc(NC(=O)CN3CCCCC3=O)cn2)c1', '=', 76.8),
  ('Cc1cnn(CCNC(=O)C2(Cn3cccn3)CC2)c1', '=', 108),
  ('C[C@]1(O)CN(C(=O)Cn2cnc3ccccc32)CC[C@@H]1Oc1ccccc1', '=', 181),
  ('O=c1[nH]c2ccccc2n1C1CCN(Cc2coc(-c3cccs3)n2)CC1', '=', 475),
  ('CC(C)N1CCC(O)(c2ccccc2F)CC1', '=', 362),
  ('Brc1nnc(N2CCC(OC3CCCC3)CC2)s1', '=', 3110),
  ('O[C@H]1CC[C@H](Nc2ncc3nc(Nc4c(F)cc(F)cc4F)n([C@H]4CCOC4)c3n2)CC1', '=', 10.9),
  ('CN(Cc1ccccc1N1CCCC1)C(=O)c1cccc(Cn2ccnc2)c1', '=', 1520),
  ('Cn1ncnc1NCc1cc(F)cc(F)c1', '≤', 10.7),
  ('O=C(CCc1ccccc1)N1CCC(c2cccc(Cc3ccc(F)cc3)n2)CC1', '=', 4270),
  ('Cn1nc(-c2cc(F)cc(F)c2)cc1N', '=', 48.7),
  ('c1ccc(-c2noc(NC3CC3)n2)cc1', '=', 178),
  ('COC(=O)C1=NOC2(CCN(CCC(C)(C)C)CC2)C1', '=', 301),
  ('CCN1C(=O)C(C)(C)COc2cc(NS(=O)(=O)c3cc(C)c(C)cc3OC)ccc21', '=', 9320);

----------
# settings: pH 6.8
measured-metric: aqueous solubility

INSERT INTO assay_data (input_smiles, observed_result) VALUES
  ('CCOc1ccc(-c2ccccc2NC(=O)COC)cc1', '0.0373 mg/mL'),
  ('COc1ccc(-c2onc(C)c2-c2cnn(-c3ccccc3)c2)c(O)c1', '0.00025 mg/mL'),
  ('Cc1ccccc1N(CC(=O)N(C)C)S(C)(=O)=O', '0.0467 mg/mL'),
  ('c1ccc(-c2cc3c(N4CCC(c5ncc[nH]5)CC4)ncnc3s2)cc1', '0.00415 mg/mL'),
  ('CC1(C)Oc2ccc(Cl)cc2[C@@H]2O[C@@H]3CCNC[C@@H]3C[C@H]21', '0.0425 mg/mL'),
  ('c1ccc(C(c2ccccc2)c2noc(Cn3cnc(C4CC4)n3)n2)cc1', '0.0263 mg/mL'),
  ('CCn1nccc1CNc1nnc(-c2ccc(OC)cc2)o1', '0.0271 mg/mL'),
  ('N#Cc1ccccc1-c1ccc(-c2nccn2-c2cccnc2)o1', '0.0297 mg/mL'),
  ('CCCC(=O)Nc1cnc(N2CCN(C)CC2)nc1', '0.0353 mg/mL'),
  ('O=C(O)c1ccc(COc2ccc(/C=C3\SC(=O)N(Cc4ccc(F)cc4)C3=O)cc2)cc1', '0.00099 mg/mL'),
  ('Cc1ccc(C)c(S(=O)(=O)N2CCCN(C3CCC3)CC2)c1', '0.0579 mg/mL'),
  ('CN1CC(=O)N(CCOc2ccccc2)C1=O', '0.0231 mg/mL'),
  ('O=C(CCc1ccco1)Nc1ccccc1OC(F)F', '0.0446 mg/mL'),
  ('CC(=O)c1ccc(OCCCCN2CCCC2)cc1', '0.0363 mg/mL'),
  ('c1cc(CC2CCNCC2)c2cccnc2c1', '0.0522 mg/mL'),
  ('CC(C)c1ccc2c(c1)[C@H](NC(=O)Cn1ccnn1)CCC2', '0.0126 mg/mL'),
  ('CN(Cc1ccccn1)c1nc2ccccc2o1', '0.0378 mg/mL'),
  ('Oc1ccc(-c2noc(-c3cccnc3)n2)cc1', '0.00503 mg/mL'),
  ('Cn1ncc2c1CCc1sc(NC(=O)c3cccnc3)nc1-2', '0.0108 mg/mL'),
  ('O=C(c1ccc(F)cc1)N1Cc2nc[nH]c2C[C@H]1c1nc(-c2ccc(Cl)cc2)no1', '0.0202 mg/mL'),
  ('Cc1cc(C)cc(C(=O)Nc2nn(C(C)(C)C)cc2C#N)c1', '0.0386 mg/mL'),
  ('COc1cccc(CC(=O)Nc2ccc3nc(C)sc3c2)c1', '0.0523 mg/mL'),
  ('O=C(c1ccccc1-c1ncc(-c2ccccc2F)o1)N1CCC1', '0.0436 mg/mL'),
  ('Cc1noc(C2CCN(C(=O)C3(c4cccc(F)c4)CCC3)CC2)n1', '0.0763 mg/mL'),
  ('CC(=O)N1CCN(C(=O)[C@H]2CCCCN2C(=O)OC(C)(C)C)CC1', '0.113 mg/mL'),
  ('O=C(NC1CC1)c1cccnc1Oc1ccccc1', '0.0652 mg/mL'),
  ('C=CC(=O)Nc1cccc(Oc2nc(Nc3ccc(N4CCN(C)CC4)cc3)nc3ccoc23)c1', '0.0286 mg/mL'),
  ('Cc1cc2ccccc2n1CC(=O)N1CCc2ccc(O)cc2C1', '0.0124 mg/mL'),
  ('CC#CC(=O)N1CC[C@@H](n2c(=O)n(-c3ccc(Oc4ccccc4)cc3)c3c(N)ncnc32)C1', '0.0646 mg/mL'),
  ('O=C(Nc1nc2ccccc2[nH]1)c1ccncc1', '0.00509 mg/mL'),
  ('Cc1nc(-c2cc(C)on2)n(CCc2ccccc2)n1', '0.0215 mg/mL'),
  ('Cn1ccnc1CCNC(=O)c1cccc2cccnc12', '0.0415 mg/mL'),
  ('CCn1ccc2cc(C(=O)N3CCN(c4ccc(C)cc4)C(=O)C3)ccc21', '0.0457 mg/mL'),
  ('CC(C)(C)c1ccc(CN2CCC(C(N)=O)CC2)cc1', '0.0478 mg/mL'),
  ('COc1ccc2c(c1)C(=O)N(c1ccccc1OC)C(=O)C2', '0.0403 mg/mL');
